system: 292921-168-R tumor spheroid viability; test: Anticancer human tumor 292921-168-R patient-derived pancreatic carcinoma cell line growth inhibition; details: curve of first compound; second compound 31.6 µM; spheroids with HUVEC and MSC;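 also: spheroids exposed to compounds for 7 days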
IC50 values for the compounds below.

Use these answered entries as a reference point.
{"Compound": "[2H]c1nc(C)nc([2H])c1-c1cc(NC[C@@H](C)c2cccc3c(C(=O)NC)ccnc23)ncn1 + Cn1nnc2c(C(N)=O)ncn2c1=O", "Target system": "292921-168-R tumor spheroid viability", "IC50": "> 10 µM"}
{"Compound": "O=C(c1cc(Cc2n[nH]c(=O)c3ccccc23)ccc1F)N1CCN(C(=O)C2CC2)CC1 + Cn1nnc2c(C(N)=O)ncn2c1=O", "Target system": "292921-168-R tumor spheroid viability", "IC50": "4.05 µM"}

// next item, IC50 requested
INPUT: GET /values?readout=IC50&item= Cc1sc2c(c1C)C(c1ccc(Cl)cc1)=NC(CC(=O)Nc1ccc(O)cc1)c1nnc(C)n1-2 (stereo not drawn) + Cn1nnc2c(C(N)=O)ncn2c1=O
OUTPUT: 1.7 µM

The reported measurements were obtained from PubChem BioAssay AID1845196.
